The measurements presented in this section are drawn from ChEMBL document CHEMBL5058577.

Some molecules, each annotated with its measured Population Membrane Permeable-Phenotype (%).
system: Fibroblast; test: Multiplex assay against human fibroblast; assay type: toxicity, cell-based; conditions: 48 h, 10 µM, compound concentration 10 uM, replicate 2
Numeric only. Scale: %

Request: Would you kindly share the measured Population Membrane Permeable-Phenotype (%) for `Cc1ccc(F)cc1C(=O)Nc1ccc(C(=O)N2Cc3cccn3Cc3ccccc32)c(Cl)c1` ?
Result: 6

Request: Would you kindly share the measured Population Membrane Permeable-Phenotype (%) for `CSCC[C@H](NC=O)C(=O)N[C@@H](CC(C)C)C(=O)N[C@@H](Cc1ccccc1)C(=O)O` ?
Result: 4

Request: Would you kindly share the measured Population Membrane Permeable-Phenotype (%) for `N[C@@]1(C(=O)O)CO[C@H]2[C@H](C(=O)O)[C@H]21` ?
Result: 10

Request: Would you kindly share the measured Population Membrane Permeable-Phenotype (%) for `CCCn1c(=O)c2[nH]c(C3CCCC3)nc2n(CCC)c1=O` ?
Result: 16

Request: Would you kindly share the measured Population Membrane Permeable-Phenotype (%) for Cc1ccccc1C(=O)Nc1ccc(C(=O)N2CCCC(N(C)C)c3ccccc32)cc1.Cl (configuration not stated) ?
Result: 8

Request: Would you kindly share the measured Population Membrane Permeable-Phenotype (%) for `CN(C)CCCc1cc(C(=O)Nc2ccc(-c3ccncc3)cc2)ccc1O.Cl.Cl` ?
Result: 3

Request: Would you kindly share the measured Population Membrane Permeable-Phenotype (%) for `CC(=O)NCCc1c(Cc2ccccc2)[nH]c2ccccc12` ?
Result: 3
